- Tested On: Hexose transporter 1 (Plasmodium falciparum)
- Protocol Summary: ST_JUDE_LEISH: Cytotoxicity at 2uM final concentration against transgenic Leishmania Mexicana promastigotes LmPfHT that are glucose transport deficient and complemented with the Plasmodium falciparum hexose transporter. Activity is measured by DNA content using SYBR green in vitro
- Format: functional
Recorded measurements of inhibition, one per entry
Provide only the numeric value, understood in %.

// known answers, use as guide
Given `CN1CCN(Cc2cccc(-c3ccc4c(Nc5ccc(Oc6cccnc6)cc5)ccnc4c3)c2)CC1` , state its recorded inhibition.
5.64

Given CCc1ccc(CN2CCC(CNC(=O)c3cc(-c4cccc(Cl)c4)cs3)C2)cc1 (stereo unspecified) , state its recorded inhibition.
-0.84

Others:
Given `CC(C)(Cc1ccc(Cl)cc1)NCCCCCCNCCc1ccc(O)c(O)c1` , state its recorded inhibition.
-2.96

Given `CN1CC[C@@H](Oc2cc(CNC(=O)c3ccc(-c4ccc(Cl)cc4)s3)ccc2C(F)(F)F)C1` , state its recorded inhibition.
-1.98

Given `COc1cccc(-c2cnc(N)c(-c3nc4cc(Cl)c(F)cc4[nH]3)c2)c1` , state its recorded inhibition.
14.7

Given `COc1ccc(NC(=O)c2ccc(-c3nc(-c4ccc(Cl)cc4)cs3)cc2)cc1N1CCN(C)CC1` , state its recorded inhibition.
0.94

Given `c1ccc2oc(-c3cc4ccncc4cc3OC3CCNCC3)cc2c1` , state its recorded inhibition.
-3.57

Given `Cn1c(NC2CCN(CC3CCN(C(=O)/C=C/c4ccc(Cl)c(Cl)c4)CC3)CC2)nc2ccccc21` , state its recorded inhibition.
13.8

Given `COc1cc2nccc(Nc3ccc(NC(=O)c4ccc(C)cc4)c(O)c3)c2cc1OC` , state its recorded inhibition.
9.16

Given CCCCCOc1ccc(C(O)C(CCC(CN2CCCCCC2)C(O)c2ccc(OCCCCC)cc2)CN2CCCCCC2)cc1 (stereo unspecified) , state its recorded inhibition.
2.73

Given `COCCOCCOCCn1ccc2c3c(N)nc(N)nc3ccc21` , state its recorded inhibition.
1.94

* * *

- Tested On: Solute carrier family 2, facilitated glucose transporter member 1 (Homo sapiens) (UniProt P11166)
- Sequence (P11166 whole entry): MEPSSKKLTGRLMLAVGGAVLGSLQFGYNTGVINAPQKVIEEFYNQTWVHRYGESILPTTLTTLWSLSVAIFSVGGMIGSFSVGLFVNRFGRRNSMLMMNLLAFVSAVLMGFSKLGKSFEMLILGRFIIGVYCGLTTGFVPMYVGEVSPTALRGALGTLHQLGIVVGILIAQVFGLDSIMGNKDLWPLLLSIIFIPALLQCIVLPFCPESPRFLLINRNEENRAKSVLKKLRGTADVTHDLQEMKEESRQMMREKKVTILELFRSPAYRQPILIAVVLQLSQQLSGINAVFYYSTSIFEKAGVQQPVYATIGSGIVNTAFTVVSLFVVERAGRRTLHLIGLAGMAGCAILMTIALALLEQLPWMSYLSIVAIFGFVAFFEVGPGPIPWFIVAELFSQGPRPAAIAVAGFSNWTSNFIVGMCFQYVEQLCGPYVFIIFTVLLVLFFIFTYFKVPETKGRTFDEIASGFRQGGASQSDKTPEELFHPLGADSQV
- Protocol Summary: ST_JUDE_LEISH: Cytotoxicity at 2uM final concentration against transgenic Leishmania Mexicana promastigotes LmGLUT1 that are glucose transport deficient and complemented with the human glucose transporter GLUT1. Activity is measured by DNA content using SYBR green in vitro
- Type: functional
Reported Metric: inhibition

Given `Cc1ccc(Cn2cnc3cc(C(=O)Nc4ccc(-c5ccc(CN(C)C)cc5)cc4)ccc3c2=O)o1` , state its recorded inhibition.
5.55%

Given `O=C(/C=C/c1ccc(Cl)c(Cl)c1)N1CCN(C(=O)Nc2cccc(C(F)(F)F)c2)CC1` , state its recorded inhibition.
5.23%

Given `COC(=O)c1cccc(CNCc2cccc(-c3ccc(-c4nc5cccc(C)c5[nH]4)cc3)c2)c1` , state its recorded inhibition.
11.9%

Given `Cc1cccc2nc(-c3ccc(-c4ccc(NC(=O)Nc5ccc(Cl)cc5)cc4)s3)[nH]c12` , state its recorded inhibition.
1.01%

Given `CNC(=O)c1ccccc1Nc1cc(Nc2cc(OC)ccn2)ncc1Cl` , state its recorded inhibition.
5.77%

Given `SC(=Nc1ccc(Cl)c(Cl)c1)NN=Cc1ccccn1` , state its recorded inhibition.
1.55%

Given `COc1cccc(OC2CCN(C(=O)c3ccc(-c4ccc(N5CCCC5=O)cc4C)cc3)CC2)c1` , state its recorded inhibition.
1.4%

Others:
Given `Cc1c(C(=O)NCc2ccncc2)sc2nc(-c3cccc([N+](=O)[O-])c3)cn12` , state its recorded inhibition.
0.53%

Entry source: ChEMBL document CHEMBL3433997
